System: 284 cell lines
assay explanation: cells
test settings: Homo sapiens, SW948, read-out: Cell Count IC50, SW948; Colon
pIC50: −log10 of the molar value.
readout: pIC50

Fill blank: measured pIC50 of the molecule `CNc1cc(C)nc(Nc2ccc(OC)c(OCCCN3CCCC3)c2)n1` is ____.
< 5.00

---

System: 284 cell lines
assay explanation: cells
test settings: Homo sapiens, SJSA-1, read-out: Cell Count IC50, SJSA1; Bone; Osteosarcoma
pIC50: −log10 of the molar value.
readout: pIC50

What value of pIC50 has been recorded for this entry: CNc1cc(C)nc(Nc2ccc(OC)c(OCCCN3CCCC3)c2)n1 [Compound 205]
5.00 to 6.00
